Recorded activation, one value per entry.
System under test: Cellular tumor antigen p53 (Homo sapiens) (UniProt P04637)
Sequence (P04637 whole entry, looked up): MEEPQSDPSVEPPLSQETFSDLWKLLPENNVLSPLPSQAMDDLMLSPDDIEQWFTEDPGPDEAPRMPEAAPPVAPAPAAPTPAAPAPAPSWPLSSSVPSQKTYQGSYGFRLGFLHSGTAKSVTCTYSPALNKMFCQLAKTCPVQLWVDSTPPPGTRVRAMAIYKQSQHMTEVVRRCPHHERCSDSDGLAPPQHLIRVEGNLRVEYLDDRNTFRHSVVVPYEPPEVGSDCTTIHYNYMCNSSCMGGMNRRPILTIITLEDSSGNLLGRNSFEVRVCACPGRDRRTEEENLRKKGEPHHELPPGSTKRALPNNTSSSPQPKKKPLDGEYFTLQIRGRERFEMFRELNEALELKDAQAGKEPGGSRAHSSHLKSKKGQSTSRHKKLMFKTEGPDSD
Assay overview: Primary qHTS for small molecule compounds that upregulate eGFP-tagged delta133p53alpha (in N-terminal) cells. (AID 2060322);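 further: cells pre-induced with doxycycline then dosed without doxycycline; series mostly up to about 56 µM; 0% = DMSO vehicle and 100% = reference activator; nearly all actives have a fitted effect of over 75% in size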
Settings: NCI-H358 eGFP-delta133p53alpha fluorescence, 24 h; active compounds read high
Inconclusive results are not listed.
Readout name: activation (%)

{"Compound": "CCN(CCCc1ccccc1)CCCc1ccccc1", "System under test": "Cellular tumor antigen p53 (Homo sapiens) (UniProt P04637)", "Observed": -1.67}
{"Compound": "O=C(Nc1ccc(OC(F)(F)F)cc1)c1sccc1NCc1ccnc2ccccc12", "System under test": "Cellular tumor antigen p53 (Homo sapiens) (UniProt P04637)", "Observed": 27.4}
{"Compound": "COC(=O)c1ccc(OC(CO)C(O)c2ccc(O)c(OC)c2)c(OC)c1 (stereo unspecified)", "System under test": "Cellular tumor antigen p53 (Homo sapiens) (UniProt P04637)", "Observed": 9.82}
{"Compound": "O=C(O)C(O)Cc1ccc(O)c(O)c1 (stereo unspecified)", "System under test": "Cellular tumor antigen p53 (Homo sapiens) (UniProt P04637)", "Observed": -12.6}
{"Compound": "COC1=CC(=O)C[C@@H](C)[C@]12Oc1cc(OC)cc(OC)c1C2=O", "System under test": "Cellular tumor antigen p53 (Homo sapiens) (UniProt P04637)", "Observed": 4.58}
{"Compound": "CC(C)CC1NC(=O)C2CC3(O)c4ccccc4NC3N2C1=O (stereo unspecified)", "System under test": "Cellular tumor antigen p53 (Homo sapiens) (UniProt P04637)", "Observed": -9.92}
